ASSAY INFO: PK of voruciclib, daily dosing continuously (Table 4)
Format: in vivo
COND: human, plasma, oral, 250 mg, Day 1, daily dosing continuously, mean; read-out: Vz/F
PROPERTY LABEL: Vd/F (L)
Please give a number only; it is taken to be in L.

-- ask Give a short answer stating reported Vd/F for CN1CC[C@@H](c2c(O)cc(O)c3c(=O)cc(-c4ccc(C(F)(F)F)cc4Cl)oc23)[C@@H]1CO [Voruciclib] .
-- reply 766

----------
ASSAY INFO: PK of voruciclib, daily dosing continuously (Table 4)
Type: in vivo
COND: human, plasma, oral, 75 mg, Day 1, daily dosing continuously, median
PROPERTY LABEL: Tmax (h)
Please give a number only; it is taken to be in h.

-- ask Give a short answer stating reported Tmax for CN1CC[C@@H](c2c(O)cc(O)c3c(=O)cc(-c4ccc(C(F)(F)F)cc4Cl)oc23)[C@@H]1CO .
-- reply 4

----------
ASSAY INFO: PK of voruciclib, 2 weeks of daily dosing followed by 1 week without dosing in a 21-day cycle (Table 3)
Type: in vivo, human
COND: human, plasma, oral, 600 mg, Day 1, 2 weeks daily dosing/1 week off, mean; read-out: AUC0-t
PROPERTY LABEL: AUC(0-t) (ng·h/mL)
Please give a number only; it is taken to be in ng·h/mL.

-- ask Give a short answer stating reported AUC(0-t) for CN1CC[C@@H](c2c(O)cc(O)c3c(=O)cc(-c4ccc(C(F)(F)F)cc4Cl)oc23)[C@@H]1CO .
-- reply 24800

----------
ASSAY INFO: PK of voruciclib, daily dosing continuously (Table 4)
Type: in vivo
COND: human, plasma, oral, 500 mg, Day 1, daily dosing continuously, mean; read-out: AUC0-t
PROPERTY LABEL: AUC(0-t)
# output: numeric value plus its unit

-- ask Give a short answer stating reported AUC(0-t) for CN1CC[C@@H](c2c(O)cc(O)c3c(=O)cc(-c4ccc(C(F)(F)F)cc4Cl)oc23)[C@@H]1CO .
-- reply 16400 ng·h/mL

----------
ASSAY INFO: PK of voruciclib, 2 weeks of daily dosing followed by 1 week without dosing in a 21-day cycle (Table 3)
Assay type: in vivo, human
COND: human, plasma, oral, 75 mg, Day 1, 2 weeks daily dosing/1 week off, median
PROPERTY LABEL: Tmax (h)
Please give a number only; it is taken to be in h.

-- ask Give a short answer stating reported Tmax for CN1CC[C@@H](c2c(O)cc(O)c3c(=O)cc(-c4ccc(C(F)(F)F)cc4Cl)oc23)[C@@H]1CO [Voruciclib] .
-- reply 4

----------
ASSAY INFO: PK of voruciclib, daily dosing continuously (Table 4)
Format: in vivo
COND: human, plasma, oral, 250 mg, Day 15, daily dosing continuously, mean; read-out: AUC0-t
PROPERTY LABEL: AUC(0-t) (ng·h/mL)
Please give a number only; it is taken to be in ng·h/mL.

-- ask Give a short answer stating reported AUC(0-t) for CN1CC[C@@H](c2c(O)cc(O)c3c(=O)cc(-c4ccc(C(F)(F)F)cc4Cl)oc23)[C@@H]1CO .
-- reply 18500
